system_under_test: nucleophosmin 1 (NPM1) (Homo sapiens, UniProt P06748)
Construct: full length of NPM1, recombinant, expressed in E. coli
Sequence (P06748 whole entry): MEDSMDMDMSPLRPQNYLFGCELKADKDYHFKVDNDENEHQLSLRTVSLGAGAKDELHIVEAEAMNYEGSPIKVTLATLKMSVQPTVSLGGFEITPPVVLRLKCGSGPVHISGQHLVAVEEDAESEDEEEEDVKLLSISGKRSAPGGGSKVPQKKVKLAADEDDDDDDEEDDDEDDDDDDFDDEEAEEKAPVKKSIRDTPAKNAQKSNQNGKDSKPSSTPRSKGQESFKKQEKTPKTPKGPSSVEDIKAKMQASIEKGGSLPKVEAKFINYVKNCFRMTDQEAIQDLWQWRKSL
measurement_description: SPR (Biacore […], NPM1 immobilized on NTA chip)
Kindly state pKd for each of the entries shown.
Numbers only, as −log10 of the molar value.

Nc1cccc2c1CN(C1CCC(=O)NC1=O)C2=O (centres unmarked) [lenalidomide]; 6.12

State, in one line, measured pKd of CC(C)c1cccc(C(C)C)c1N1C(=O)c2ccc(N)cc2C1=O
7.21
